system-name: Methyl-CpG-binding domain protein 4 (Homo sapiens);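 note: MBD4 activity read as fluorescence at 594 nm from cleavage and release of a quenched duplex DNA oligonucleotide, with APE1 coupled to incise the strand and raise turnover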
study-conditions: Compound Concentration 1.0 uM, Hit No
// map inhibition to label using lower = under 20%, middle = from 20% up to 60%, upper = 60% and over

[[record]]
molecule = "CCCCN(CCCC)C(=O)CN1C[C@H](c2cc(OC)c3c(c2)OCO3)[C@@H](C(=O)O)[C@@H]1CC(C)(C)CCC"
cat = "upper"

[[record]]
molecule = "CN1C(=O)[C@@H](N2CCc3cn(Cc4ccccc4)nc3C2=O)COc2ccccc21"
cat = "middle"

[[record]]
molecule = "O=C(c1ccc(F)cc1)N1CC(COc2ccc(Br)cc2)(C(=O)O)C1"
cat = "upper"

[[record]]
molecule = "CC(C)CC(=O)N1CCc2nc(-c3ccc(Br)cc3)nc(N(C)Cc3ccccc3)c2C1"
cat = "middle"

[[record]]
molecule = "CN(C)C(=O)Cn1cc(-c2nc([C@@](C)(c3ccc(-c4cnc(N)nc4)cc3)C3CC3)no2)cn1"
cat = "middle"

[[record]]
molecule = "CN(C)C(=O)Cn1cc(-c2ccc(-c3nnc4ccccn34)cc2)cn1"
cat = "lower"

[[record]]
molecule = "Cc1cc(F)c(C(=O)Nc2cccc(-c3nncn3C(C)C)n2)cc1-n1cnc(C2CC2)c1"
cat = "lower"

[[record]]
molecule = "NC(=O)c1ccc2nc(-c3ccc(C4(N)CCC4)cc3)c(-c3ccccc3)n2n1"
cat = "middle"

[[record]]
molecule = "NC1(c2ccc(-c3nc4c(O)ccnn4c3-c3ccccc3)cc2)CCC1"
cat = "upper"

[[record]]
molecule = "O=C(Nc1ccc(Oc2ccc(F)cc2)cc1)N1CCc2ncccc2[C@H]1c1ccc(F)cc1"
cat = "upper"

[[record]]
molecule = "C[C@@H]1CN(c2cc(-c3nn(C)c4ccc(OC5(C)CC5)cc34)ncn2)C[C@H](C)O1"
cat = "upper"

[[record]]
molecule = "COc1cccc(CNC(=O)c2nc3scc(COCc4ccc(C(=O)O)cc4)c3c(=O)[nH]2)c1"
cat = "middle"

[[record]]
molecule = "CC[C@@H]1[C@H](F)C(=O)N[C@@H]1COc1nccc2cc(C(N)=O)c(OC)cc12"
cat = "lower"

[[record]]
molecule = "COc1cc2ncn(-c3cc(OCc4ccccc4C(F)(F)F)c(C(N)=O)s3)c2cc1OC"
cat = "lower"

[[record]]
molecule = "OCCn1cc(-c2ccc3c(c2)CCC3=NO)c(-c2ccncc2)n1"
cat = "middle"

[[record]]
molecule = "c1ccc(-c2oc3ncnc(NC[C@@H]4CCCO4)c3c2-c2ccccc2)cc1"
cat = "lower"

[[record]]
molecule = "C[C@@H](Oc1cc(-n2cnc3ccc(CN4CCN(C)CC4)cc32)sc1C(N)=O)c1ccccc1C(F)(F)F"
cat = "lower"

[[record]]
molecule = "CCOc1cn(-c2ccc(F)cc2C)nc1C(=O)Nc1ccc(Oc2ccnc3cc(OC)c(OC)cc23)c(F)c1"
cat = "middle"

[[record]]
molecule = "Cc1cc(C)c(-n2ccn3nc(-c4cccnc4)cc23)cc1NC(=O)c1cc(C#N)cc(S(F)(F)(F)(F)F)c1"
cat = "middle"


---

Parameter inhibition: see the listing below.
system-name: Single-strand selective monofunctional uracil DNA glycosylase (Homo sapiens)
Sequence (whole entry): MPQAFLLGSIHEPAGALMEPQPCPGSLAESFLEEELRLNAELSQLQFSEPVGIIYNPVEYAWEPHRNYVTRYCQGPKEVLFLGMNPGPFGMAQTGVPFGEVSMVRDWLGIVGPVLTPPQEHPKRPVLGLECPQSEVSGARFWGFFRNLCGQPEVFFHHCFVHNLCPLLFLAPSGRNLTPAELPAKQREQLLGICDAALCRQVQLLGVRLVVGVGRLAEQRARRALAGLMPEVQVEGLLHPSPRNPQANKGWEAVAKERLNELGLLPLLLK
study-conditions: Compound Concentration 10.0 uM, Hit No
Description: Inhibition of SMUG1 by quantifying inhibition of SMUG1-mediated cleavage and dissociation of quenched duplex DNA oligonucleotides, measured as fluorescence at 594 nm. To generate a functional strand incision and increase turn-over this assay is coupled to APE1.
measurement-type: inhibition (%)

[[record]]
compound = "Cc1cccc(CCN2CCC(C(=O)c3ccc(NS(C)(=O)=O)cc3)CC2)n1"
measurement_type = "inhibition"
endpoint_value = -8.55

[[record]]
compound = "COc1ccc(CCN(C)CCCC(C#N)(c2cc(OC)c(OC)c(OC)c2)C(C)C)cc1OC (centres undefined)"
measurement_type = "inhibition"
endpoint_value = -0.579

[[record]]
compound = "NC(=O)[C@@H]1CCCN1C(=O)[C@H](Cc1c[nH]cn1)NC(=O)[C@@H]1CCC(=O)N1"
measurement_type = "inhibition"
endpoint_value = -2.65

[[record]]
compound = "Cc1cnc(-c2cc(Cl)ccc2F)cc1-n1c(=O)n(CC(N)=O)c2ccccc21"
measurement_type = "inhibition"
endpoint_value = 7.03

[[record]]
compound = "O=C(Nc1cccnn1)N1CCC(=Cc2cccc(Oc3ccc(C(F)(F)F)cn3)c2)CC1"
measurement_type = "inhibition"
endpoint_value = 17

[[record]]
compound = "CCCCCCCN(CCc1ccc(SC(C)(C)C(=O)O)cc1)C(=O)Nc1ccc(F)cc1F"
measurement_type = "inhibition"
endpoint_value = 26.9

[[record]]
compound = "O=c1c2cccn2c2ccccc2n1CCCN1CCC(c2ccc(Cl)cc2)CC1"
measurement_type = "inhibition"
endpoint_value = 5.73

[[record]]
compound = "Cc1ccc2nc(CNCCCOc3ccccc3)cc(O)c2c1"
measurement_type = "inhibition"
endpoint_value = 6.33

[[record]]
compound = "Cn1ncnc1COc1nn2c(-c3c(F)cccc3F)nnc2cc1C1CCC1"
measurement_type = "inhibition"
endpoint_value = 1.23

[[record]]
compound = "O=C(O)c1cc(-c2ccc(C3CCNCC3)cc2)c2ccc(-c3ccc(C(F)(F)F)cc3)cc2c1"
measurement_type = "inhibition"
endpoint_value = -1.19

[[record]]
compound = "O=C(N[C@H](Cc1ccc(Cl)cc1)C(=O)N1CCC(Cn2cncn2)(C2CCCCC2)CC1)[C@H]1Cc2ccccc2CN1"
measurement_type = "inhibition"
endpoint_value = 10.8

[[record]]
compound = "Cc1ccc(-c2cnc([C@@]3(O)CC[C@H](C(=O)O)C(C)(C)C3)s2)cc1Nc1cccc(C(F)(F)F)n1"
measurement_type = "inhibition"
endpoint_value = 11.6

[[record]]
compound = "CC[C@H](CO)Nc1nc(NCc2ccccc2)c2ncn(C(C)C)c2n1"
measurement_type = "inhibition"
endpoint_value = -5.13

[[record]]
compound = "C[C@H](c1ccc(F)cc1)N(Cc1cccc(C(=O)O)c1)C(=O)c1cnc2ccccc2c1"
measurement_type = "inhibition"
endpoint_value = 15.5

[[record]]
compound = "COc1ccc2c(c1)O[C@@H](c1ccc(OC)c(OC)c1)C[C@H]2NC(=O)C1(c2ccc3c(c2)OC(F)(F)O3)CC1"
measurement_type = "inhibition"
endpoint_value = -5.34

[[record]]
compound = "CC(C)[C@@H]1CC[C@@H](C)C[C@@H]1P(=O)(c1ccccc1)c1ccccc1"
measurement_type = "inhibition"
endpoint_value = -9.39

[[record]]
compound = "O=C(O)CCC/C=C\\CC1C(O)CC(O)C1/C=C/C(O)COc1cccc(Cl)c1 (centres undefined)"
measurement_type = "inhibition"
endpoint_value = -7.54

[[record]]
compound = "O=C(NC[C@@H]1[C@H]2CN(C(=O)OCc3cc(C(F)(F)F)cc(C(F)(F)F)c3)C[C@@H]12)c1ccc2[nH]nnc2c1"
measurement_type = "inhibition"
endpoint_value = 8.85

[[record]]
compound = "COc1cc(OC)cc(C(=O)NNC(=O)Nc2cccc3ccccc23)c1"
measurement_type = "inhibition"
endpoint_value = 3.6


---

The following compounds are listed with their measured inhibition values.
system-name: Single-strand selective monofunctional uracil DNA glycosylase (Homo sapiens);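 note: enzymatic SMUG1 assay coupled with APE1, reading fluorescence at 594 nm released when a quenched double-stranded DNA oligonucleotide substrate is cleaved and separated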
Sequence (whole entry): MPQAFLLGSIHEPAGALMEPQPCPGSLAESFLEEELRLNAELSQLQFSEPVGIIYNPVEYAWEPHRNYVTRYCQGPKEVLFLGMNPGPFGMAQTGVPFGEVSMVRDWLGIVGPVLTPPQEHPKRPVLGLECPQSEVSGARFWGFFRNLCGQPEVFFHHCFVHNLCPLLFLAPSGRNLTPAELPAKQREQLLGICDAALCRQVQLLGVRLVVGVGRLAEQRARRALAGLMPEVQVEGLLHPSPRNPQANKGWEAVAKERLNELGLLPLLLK
study-conditions: Compound Concentration 10.0 uM, Hit No
measurement-type: inhibition (%)

[[record]]
molecule = "COCCc1ccc(-c2c(C)nc3c(N4CCOCC4)ccnn23)cn1"
system_name = "Single-strand selective monofunctional uracil DNA glycosylase (Homo sapiens)"
endpoint_value = 17.6

[[record]]
molecule = "Cn1cncc1[C@](O)(COc1ccc(C#N)cc1-c1ccc(OC(F)(F)F)cc1)c1ccc(C#N)cc1"
system_name = "Single-strand selective monofunctional uracil DNA glycosylase (Homo sapiens)"
endpoint_value = -2.99

[[record]]
molecule = "N[C@H](C(=O)O)c1ccc(C(=O)O)c(C(=O)O)c1"
system_name = "Single-strand selective monofunctional uracil DNA glycosylase (Homo sapiens)"
endpoint_value = -4.49

[[record]]
molecule = "C[C@@]1(Cc2ccc(C#N)cc2)C(=O)N(c2cc(Cl)cc(Cl)c2)c2ncc(C(=O)NC3(c4nc(C5CCC5)no4)CC3)n21"
system_name = "Single-strand selective monofunctional uracil DNA glycosylase (Homo sapiens)"
endpoint_value = 14.7

[[record]]
molecule = "COc1ccc(C(=O)N2CCN(C(=O)/C=C/c3ccc(Br)cc3)CC2)cc1"
system_name = "Single-strand selective monofunctional uracil DNA glycosylase (Homo sapiens)"
endpoint_value = -0.421


Origin of measurements: ChEMBL document CHEMBL5665443
